System: MARIMO
Assay: cell viability relative to vehicle control; higher = less cytotoxic;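 note: after 48 h exposure read by CellTiter-Glo luminescence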
Settings: 10 µM; SRSF2 genotype: SRSF2 wt/wt
Where a name gives a salt, the structure may show the parent alone.
MEASURE NAME: cell viability (%)

OCCOCCN1CCN(Cc2cccc(Oc3ccccc3)c2)CC1	99.3
CC(C)=CCCC(C)(O)C1CCC2(C)C1C(O)CC1C3(C)CCC(O)C(C)(C)C3C(OC3OC(CO)C(O)C(O)C3OC3OC(C)C(O)C(O)C3O)CC12C [(20S)Ginsenoside Rg2]	108
COC(=O)C1=CC[C@@]23CC[C@@H]([C@@](C)(/C=C/C=C(\C)C(=O)O)OC2=O)[C@@]3(OC(C)=O)CC1	9.79
CN1C(C(=O)Nc2ccccn2)=C(O)c2sc(Cl)cc2S1(=O)=O	95.8
NC(=S)c1ccncc1 [Thioisonicotinamide]	105
Clc1ccc(COC(Cn2ccnc2)c2ccc(Cl)cc2Cl)cc1 (stereo unspecified) [Econazole nitrate (Spectazole)]	71
N#Cc1ccc2ncnc(NCCc3ccccc3)c2c1	94
O=C1c2c(O)cccc2C([C@@H]2O[C@H](CO)[C@@H](O)[C@H](O)[C@H]2O)c2cc(CO)cc(O)c21 (stereo partly specified)	102
FC(F)(F)Oc1ccc(-c2ccc3nnc(C(F)(F)F)n3c2)cc1	97.8
CCN1CCCC1CNC(=O)c1cc(S(=O)(=O)CC)c(N)cc1OC (stereo unspecified) [Amisulpride]	107
C#CC1(O)CC[C@H]2[C@@H]3CCC4=CC(=O)CC[C@@H]4[C@H]3CC[C@@]21CC (stereo partly specified)	103
Cc1cc(C)nc(NS(=O)(=O)c2ccc(NC(=S)NC(=O)COc3ccc(Br)cc3Cl)cc2)n1	90.7
O=c1c2ccccc2nc(C=Cc2cccnc2)n1Cc1ccccc1	90.1
CN(C)c1ccc2nc3ccc(=[N+](C)C)cc-3sc2c1	14.2
CS(=O)(=O)N1CCN(Cc2cc3nc(-c4cccc5[nH]ncc45)nc(N4CCOCC4)c3s2)CC1	57.8
CC1(C)CC[C@]2(C(=O)O)CC[C@]3(C)C(=CC[C@@H]4[C@@]5(C)C[C@@H](O)[C@H](O)C(C)(C)[C@@H]5CC[C@]43C)[C@@H]2C1	108
CNC(=O)c1ccc(C)c(-n2c(C)cc(OCc3ccc(F)cc3F)c(Br)c2=O)c1	58.4
COc1ccccc1OCC(O)CN1CCN(CC(=O)Nc2c(C)cccc2C)CC1 (stereo unspecified) [Ranolazine (Ranexa)]	102
CC(=O)O[C@H]1C[C@@H]2CC[C@@H]3[C@H](CC[C@@]4(C)[C@H]3C[C@H]([N+]3(C)CCCCC3)[C@@H]4OC(C)=O)[C@@]2(C)C[C@@H]1N1CCCCC1 [Vecuronium Bromide]	103
COc1ccc(O)cc1	100
O=C1CN2Cc3c(ccc(Cl)c3Cl)N=C2N1 [Anagrelide hydrochloride]	96.4
Cc1ccc(C(=O)O)c(O)c1	111
CN(CC(=O)N(Cc1ccc(C2CCCCC2)cc1)c1ccc(C(=O)NO)cc1)S(=O)(=O)c1c(F)c(F)c(F)c(F)c1F	0.67
Cc1cc(N2CCOCC2)ccc1Nc1nc(NC2CCCCC2)c2[nH]cnc2n1	53.9
CC1(C)C2CCC1(C)C(O)C2 (single isomer, unassigned; (-)) [(-)-Borneol]	109
CC(C)[C@H](N)C(=O)OCC(CO)OCn1cnc2c(=O)nc(N)[nH]c21 (stereo partly specified) [Valganciclovir Hydrochloride]	84.8
C[C@@H]1O[C@@H](OC[C@H]2O[C@@H](Oc3cc(O)c4c(=O)cc(-c5ccc(O)cc5)oc4c3)[C@H](O[C@@H]3O[C@@H](C)[C@H](O)[C@@H](O)[C@H]3O)[C@@H](O)[C@@H]2O)[C@H](O)[C@H](O)[C@H]1O	105
CC(NC(=O)C(Cc1ccccc1)NC(=O)OCc1ccccc1)C(=O)CF (stereo unspecified)	111
Cc1ccc(O)c(O)c1	89.5
CC(=O)N1CCC(Nc2cc(C(=O)NC[C@H](O)CN3CCc4ccccc4C3)ncn2)CC1	103
CCC(=O)O[C@H]1[C@H](O[C@@H]2[C@@H](C)[C@H](O[C@H]3C[C@@](C)(OC)[C@@H](O)[C@H](C)O3)[C@@H](C)C(=O)O[C@H](CC)[C@@](C)(O)[C@H](O)[C@@H](C)C(=O)[C@H](C)C[C@@]2(C)O)O[C@H](C)C[C@@H]1N(C)C [Erythromycin estolate]	105

* * *

Test system: K562
Experiment: cell viability relative to vehicle control; higher = less cytotoxic
Conditions: 10 µM; SRSF2 genotype: SRSF2 wt/wt
Quick reference for cell viability among some compounds
MEASURE NAME: cell viability (%)

COC(=O)Nc1nc2cc([S+]([O-])c3ccccc3)ccc2[nH]1 (stereo unspecified)	58.5
O=c1ccc2ccc(OCCCCN3CCN(c4cccc5sccc45)CC3)cc2[nH]1	60.1
Nc1nc2[nH]cnc2c(=S)[nH]1	26.8
CCOC(=O)[C@H](CCc1ccccc1)N[C@@H](C)C(=O)N1[C@H](C(=O)O)C[C@@H]2CCC[C@@H]21	89.9
Cc1cc(/C=C/C#N)cc(C)c1Nc1ccnc(Nc2ccc(C#N)cc2)n1	50.1
O=C(O)C1=C(CSc2nnnn2CS(=O)(=O)O)CS[C@@H]2[C@H](NC(=O)[C@H](O)c3ccccc3)C(=O)N12 [Cefonicid sodium]	102
COc1ncc(-c2cc(-c3ncc(CN4C[C@@H](C)O[C@@H](C)C4)o3)c3cn[nH]c3c2)cc1NS(C)(=O)=O	61.2
COc1ccc(-c2oc3c(CC=C(C)C)c(O[C@@H]4O[C@H](CO)[C@@H](O)[C@H](O)[C@H]4O)cc(O)c3c(=O)c2O[C@@H]2O[C@@H](C)[C@H](O)[C@@H](O)[C@H]2O[C@@H]2O[C@@H](C)[C@H](O)[C@@H](O)[C@H]2O)cc1	106
CCOC(=O)C1=C[C@]2(CC)CCCN3CCc4c(n1c1ccccc41)[C@@H]32	95.6
N/C(=N\N=C\c1ccc(Cl)cc1)N/N=C/c1ccc(Cl)cc1 [Robenidine Hydrochoride]	67.4
COc1nc2ccc(Br)cc2cc1[C@@H](c1ccccc1)[C@@](O)(CCN(C)C)c1cccc2ccccc12	85.4
Cc1cc2c(s1)Nc1ccccc1N=C2N1CCN(C)CC1 [Olanzapine (Zyprexa)]	90.7
NCCCCCC(=O)O	99.6
COc1cc2c(cc1OC)[C@@H]1Cc3ccc(OC)c(OC)c3CN1CC2	101
Nc1ncnc2c1ncn2C1OC(COP(=O)(O)OP(=O)(O)O)C(O)C1O (stereo unspecified)	107
O=C(/C=C/c1cncc(F)c1)c1c(-c2ccccc2)c2cc(Cl)ccc2[nH]c1=O	2.2

* * *

Test system: OCI-AML2
Assay: cell viability relative to vehicle control; higher = less cytotoxic
Conditions: 10 µM; SRSF2 genotype: P95H/wt
Structures can show the parent of a compound that is named as a salt.
MEASURE NAME: cell viability (%)

C=C[C@@H]1C[C@]1(NC(=O)[C@@H]1C[C@@H](Oc2ncc(OC)c3ccc(Cl)cc23)CN1C(=O)[C@@H](NC(=O)OC(C)(C)C)C(C)(C)C)C(=O)NS(=O)(=O)C1CC1	108
CN[C@@H](C)C(=O)N[C@H](C(=O)N1CCC[C@H]1C(=O)N[C@H]1c2ccccc2C[C@H]1OCC#CC#CCO[C@@H]1Cc2ccccc2[C@@H]1NC(=O)[C@@H]1CCCN1C(=O)[C@@H](NC(=O)[C@H](C)NC)C1CCCCC1)C1CCCCC1	0.56
CC(=O)Oc1ccc2c(c1)Oc1cc(OC(C)=O)ccc1C21OC(=O)c2cc(C(=O)ON3C(=O)CCC3=O)ccc21.CC(=O)Oc1ccc2c(c1)Oc1cc(OC(C)=O)ccc1C21OC(=O)c2ccc(C(=O)ON3C(=O)CCC3=O)cc21	75.5
O=C(O)c1cc(=O)[nH]c(=O)[nH]1	95.2
CC(COc1ccccc1)N(CCCl)Cc1ccccc1 (stereo unspecified) [Phenoxybenzamine HCl]	54.4
Cc1nc(NC(=O)N2CCC[C@H]2C(N)=O)sc1-c1csc(C(C)(C)C)n1	61.8

* * *

Quick reference for cell viability among some compounds
Tested on: OCI-AML2
Experiment: cell viability relative to vehicle control; higher = less cytotoxic
Settings: 10 µM; SRSF2 genotype: wt/wt
Where a name gives a salt, the structure may show the parent alone.
MEASURE NAME: cell viability (%)

COc1cc(-c2cc(-c3cccc(O)c3)cnc2N)cc(OC)c1OC	83.1
C1=N/C2=N/c3ccc(OCCN4CCCC4)c(c3)COC/C=C/COCc3cccc(c3)C(=C1)N2 [Pacritinib (SB1518)]	0.32
CC(=O)O[C@@H]1C[C@@]23C[C@@]24CC[C@H](O[C@@H]2OC[C@@H](O)[C@H](O)[C@H]2O)C(C)(C)[C@@H]4CC=C3[C@]2(C)C[C@@H]3OC4(C[C@@H](C)[C@@H]3[C@@]12C)OC(O)C1(C)OC41 (some centres not stated) [Cimicifugoside]	96
CCCCCCCCCCCCCCCC(=O)OCC [Ethyl palmitate]	107
CN(C(=O)CNC(=O)/C=C/c1cccc(Cl)c1)C1CCS(=O)(=O)CC1	104
CCC1(c2c[nH]cn2)Cc2ccccc2C1 [Atipamezole hydrochloride]	95.2
COc1cc(C[C@@H](CO[C@@H]2O[C@H](CO)[C@@H](O)[C@H](O)[C@H]2O)[C@H](CO[C@@H]2O[C@H](CO)[C@@H](O)[C@H](O)[C@H]2O)Cc2ccc(O)c(OC)c2)ccc1O [Secoisolariciresinol diglucoside]	104
COc1ccc(-c2cc(=O)c3c(OC)c(OC)c(OC)c(OC)c3o2)cc1	88.1
Cc1cnc(C(=O)N[C@H]2CCCCC/C=C\[C@@H]3C[C@@]3(C(=O)NS(=O)(=O)C3CC3)NC(=O)[C@@H]3C[C@@H](Oc4nc5ccccc5c5ccccc45)CN3C2=O)cn1	114
Cc1nc(C)c(C)nc1C [Tetramethylpyrazine]	116
CCCCCCCCCCCCCc1cccc(O)c1C(=O)O	103
C=CC(=O)N1CCC[C@@H](n2nc(-c3ccc(Oc4ccccc4)cc3)c(C(N)=O)c2N)C1	52.1
CCCCOc1ccc(CC(=O)NO)cc1	91.8
CCCC(CCC)C(N)=O [Valpromide]	107
COc1ccnc(C[S+]([O-])c2nc3cc(OC(F)F)ccc3[nH]2)c1OC (configuration not stated) [Pantoprazole sodium]	104
C[C@@H](Oc1cc(-n2cnc3ccc(CN4CCN(C)CC4)cc32)sc1C(N)=O)c1ccccc1C(F)(F)F	17.1
Cc1nc2n(c(=O)c1CCN1CCC(c3noc4cc(F)ccc34)CC1)CCCC2 [Risperidone (Risperdal)]	99
CC1(C)C[C@@H]1C(=O)N/C(=C\CCCCSC[C@H](N)C(=O)O)C(=O)O	110
O=C(O)/C=C/c1ccc(Cn2ccnc2)cc1 [Ozagrel]	99.6
Cc1nccn1CCC(C(N)=O)(c1ccccc1)c1ccccc1	102
C[n+]1c2n(c(=O)c3ccccc31)CCc1c-2[nH]c2ccccc12 [Dehydroevodiamine]	87.5
O=C(C=CC=Cc1ccccc1)CCc1ccccc1	95.6
CC(=O)NS(=O)(=O)c1ccc(N)cc1 [Sulfacetamide]	106
CC(C)=CCC[C@@H](C)CC=O	114
O=S(=O)(O)Oc1ccc(C(c2ccc(OS(=O)(=O)O)cc2)c2ccccn2)cc1 [Sodium Picosulfate]	101
O=C(O)c1ccccc1-c1c2cc(Br)c(=O)c(Br)c-2oc2c(Br)c(O)c(Br)cc12 [Eosin Y Disodium]	93.4
CCOC(C)OCCc1ccccc1 (configuration not stated)	98.9
FC(F)(F)Oc1ccc(-c2ccc3nnc(C(F)(F)F)n3c2)cc1	94.4
Cc1cnc(NC(=O)C2=C(O)c3ccccc3S(=O)(=O)N2C)s1	99.4
Cc1[nH]c(=O)c(C#N)cc1-c1ccncc1	96
CCCCCOc1ccc(-c2ccc(-c3ccc(C(=O)N[C@H]4C[C@@H](O)[C@@H](O)NC(=O)[C@@H]5[C@@H](O)[C@@H](C)CN5C(=O)[C@H]([C@@H](C)O)NC(=O)[C@H]([C@H](O)[C@@H](O)c5ccc(O)cc5)NC(=O)[C@@H]5C[C@@H](O)CN5C(=O)[C@H]([C@@H](C)O)NC4=O)cc3)cc2)cc1	82.8
Cc1ccc(NC(=O)c2cccc(C(C)(C)C#N)c2)cc1Nc1ccc2ncn(C)c(=O)c2c1	41.7
